Source: patent US20250147039A1

EXPERIMENT: Alkali metal dependent formation of 1,5-cz-Lig and 1,4-cz-Lig isomers from Lig at pH 10.2 (Chart 14)
Type: physicochemical
CONDITION_SET: B: 1 day at 80° C.; Borate/(M^I)2CO3 buffer pH 10.2
Please use Criterion met for conversion to 1,4-cz-Lig isomer, Rb^I under 20% and Criterion not met for everything else, ties included.

ENTRY_SMILES	CAT
C#Cc1cccc(CN2CCN(CP(=O)(O)O)CCN(Cc3cccc(CN=[N+]=[N-])n3)CCN(CP(=O)(O)O)CC2)n1	Criterion not met
C#Cc1cccc(CN2CCN(CP(=O)(O)c3ccccc3)CCN(Cc3cccc(CN=[N+]=[N-])n3)CCN(CP(=O)(O)c3ccccc3)CC2)n1	Criterion not met
C#Cc1cccc(CN2CCN(CC(=O)O)CCN(Cc3cccc(CN=[N+]=[N-])n3)CCN(CP(=O)(O)O)CC2)n1	Criterion not met
C#Cc1cccc(CN2CCN(CC(=O)O)CCN(Cc3cc(-c4ccccc4)cc(CN=[N+]=[N-])n3)CCN(CC(=O)O)CC2)n1	Criterion not met
C#CCNC(=O)CN1CCN(CC(=O)O)CCN(Cc2cc(-c3ccccc3)cc(CN=[N+]=[N-])n2)CCN(CC(=O)O)CC1	Criterion met
C#Cc1cccc(CN2CCN(CP(=O)(O)OCC)CCN(Cc3cccc(CN=[N+]=[N-])n3)CCN(CP(=O)(O)OCC)CC2)n1	Criterion not met
